# procedure-details: yeast display, Sf9 membrane polyspecificity reagent, FACS + sequencing; frameworks hold sequencing errors
reported-endpoint: polyreactivity (PSR sort gate)

QGQLGEYGGGLVQAGGSLRLSCAAYGRTVYYYAMGWYRQEPGKDREFVAGITATGSSTYYADSVKGRFTISRDNAKNTVYLQMNSLKPEDTAVYFCAADRYTTYSGQWSYPYDYWGQGTQVTVSS
low polyreactivity
QVQLVESGGGLVQAGGSLRLSCAASGRIFSAYAMGWYRQAPGKEREFVAAITQSGGSTYYADSVKGRFTISRDNAKNTVYVQMNSLKPEDTAVYYCAAGDAYYTEALPFGEYDYWGQGTQVTVSS
low polyreactivity
QVQLVESVGGLVQAGGSLRLSCAASGGTFFYNSMGWYRQAPGKEREFVAAINGGTSTNYADSVKGRFTISRDNAKNTVYLQMNSLKPEDTAVYYCAAVYRRLGRFDWYDYWGQGTQVTVSS
low polyreactivity
QVQLVESGGGLVQAGGSLRLSSAASGGIFQLYAMGWYRQAPGKERELVADISRSGGSTYYADSVKGRFTISRDTAKNTVYLQMNSLKPEDTAVYYCAARYWTSIVRYRGDYWGQGTQVTVSS
high polyreactivity
QVQLVESGGGLVQAGGSLRLSCAASGRIFGSYAMGWYRQAPGKERELVAAISWRGTSTYYADSVKGRFTISRDNAKNTVYLQMNSLIPEDTAVYYCAARGLWPYDYWGQGSQVTVSS
low polyreactivity
QVQLVESGGGLVQAGRSLRLICAASGRTFSPNTMGWYRQAPGKEREFVAAINRSGGTTYYADSVKGRFTISRDIAKNTVYLQMNSRKPEDTAVYYCAADSIVPIYRGNDDNYWGQGTQVTVSS
low polyreactivity
QVQLVESGGGLVQAGGSLRLSCAASGSIFYRYAMGWYRQAPGKERELVAAISRSGASTYYADSVKGRFTISRDNAKNTVYLQMNSLKPEDTAVYYCNALFSKFTNRYDYWGQGTQVTVSS
high polyreactivity
QVQLVESGGGLVQAGGSLRLSCAATGFTFGSNVMGWYRQAPGKERELVATIRRGGSTNYADSVKGRFTISRDNAKNTVYLQLNSLKPEDTAVYYCATRYREWGQGTQVTVSS
high polyreactivity
QVQHVESGGGLVQAGGSLRLSCAASGRTFYSYAMGWYRQAPGKERELVAAINSGGTTYYADSVKGRFTISRDNAKNTVYLEINSLKPEDTAVYYCAAVSYLFLYQGYPIAYPMYYWGQGTQVTVSS
low polyreactivity
QGQLVESGGGLVQAGGSLRLSCAASGSSFRGNALGGYRQAPGKERELVASISYSGGSTYYADSVKGRFTISRDSAKNTVYLQMNSLKPEDTAVYYCAADDSVAYPYSGYQYYRHIYDDWGQGTQVTVSS
low polyreactivity
QVQLVESGGGLVQAGGSLRLSCAASGRTLKWYAMGWDRQAPGKERELVAAISWSGGSTYYADSVKGRFTISRDNAKNTVYLQMNSLKPEDTSVYYCAVAVTSYSSKKLYYWGQGTQVTVSS
low polyreactivity

---

# procedure-details: yeast display, Sf9 membrane polyspecificity reagent, FACS + sequencing; frameworks hold sequencing errors
reported-endpoint: polyreactivity (PSR sort gate)

QVQLVESGGGLVQAGGSLRISCAASGRIYVYNVMGWSRQAPGKETELVAAISWGTGSTYADSVKGRFTISRDNAKNTVYLQMNSLKPEDTAVYYCAAAADYYYDHDYWGQGTQVTVSS
low polyreactivity
QVQLVESGGGLVQAGGSLRLSCAASGFTIGHYAMGWYRQAPGKERELVAAISSGDRTYFADSVKGRFTISRDNAKNTFYLQMNSLKPEDTAVYYCNAVYYSWAQSARFDYWGQGTQVTVSS
low polyreactivity
QVQRVESGGGLVQAGGRLRLSCAASGSIFFSKAMGWYRPAPGKERELVAGIRSGGITNYADSVKGRFTISRDNAKNTVSLQMNSLKPEDTAVYYCAKLKDHGRYAYAFDYWGQGTQVTVSS
low polyreactivity

The reported numbers originate from the nanobody polyreactivity screen of Harvey et al. (2022).
